Hey, just so you know, these numbers are from patent US20090025713A1.

Test system: Calu-3 cells
ASSAY_NOTES: Cellular tolerability test: TEER of Calu-3 monolayers
Type: cell-based, human
SETUP_CONDITIONS: dilution 1:5; after 24 h in cell culture following incubation
REPORTED_METRIC: TEER after 24 hours Mean [%] (%)
// return numeric value only (unit: %, not printed)

Kindly note the recorded TEER after 24 hours Mean [%] for C[C@@H]1[C@H](O)[C@@H](C)/C=C/C=C/C=C/C=C/C=C/C=C/C=C/[C@H](O[C@@H]2O[C@H](C)[C@@H](O)[C@H](N)[C@@H]2O)C[C@@H]2O[C@](O)(C[C@@H](O)C[C@@H](O)[C@H](O)CC[C@@H](O)C[C@@H](O)CC(=O)O[C@H]1C)C[C@H](O)[C@H]2C(=O)O [Amphotericin B, reference compound] , which is 64

Kindly note the recorded TEER after 24 hours Mean [%] for O=C1NS(=O)(=O)c2ccccc21.[Na] , which is 50

Kindly note the recorded TEER after 24 hours Mean [%] for OC[C@H]1O[C@@H]2O[C@H]3[C@H](O)[C@@H](O)[C@@H](O[C@H]4[C@H](O)[C@@H](O)[C@@H](O[C@H]5[C@H](O)[C@@H](O)[C@@H](O[C@H]6[C@H](O)[C@@H](O)[C@@H](O[C@H]7[C@H](O)[C@@H](O)[C@@H](O[C@H]8[C@H](O)[C@@H](O)[C@@H](O[C@H]9[C@H](O)[C@@H](O)[C@@H](O[C@H]1[C@H](O)[C@H]2O)O[C@@H]9CO)O[C@@H]8CO)O[C@@H]7CO)O[C@@H]6CO)O[C@@H]5CO)O[C@@H]4CO)O[C@@H]3CO , which is 46

Kindly note the recorded TEER after 24 hours Mean [%] for O=C1O[C@H]([C@@H](O)CO)C([O-])=C1O.[Na+] [Sodium Ascorbate] , which is 66

Kindly note the recorded TEER after 24 hours Mean [%] for NC[C@H]1O[C@H](O[C@H]2[C@H](O)[C@@H](O[C@H]3O[C@H](CO)[C@@H](O)[C@H](N)[C@H]3O)[C@H](N)C[C@@H]2N)[C@H](N)C[C@@H]1O [Tobramycin (T100), Tobramycin, reference compound] , which is 79

Kindly note the recorded TEER after 24 hours Mean [%] for O=C(O)CC(O)(CC(=O)O)C(=O)O , which is 44

###

Test system: Calu-3 cells
ASSAY_NOTES: Cellular tolerability test: TEER of Calu-3 monolayers
Format: cell-based, human
SETUP_CONDITIONS: conc. (undiluted); after 24 h in cell culture following incubation
Param threshold (50%) applies to TEER after 24 hours Mean [%]; output True when value >= threshold, False when value < threshold.

Reported TEER after 24 hours Mean [%] at or above 50%? O=C(O)CC(O)(CC(=O)O)C(=O)O
True

Reported TEER after 24 hours Mean [%] at or above 50%? O=C1O[C@H]([C@@H](O)CO)C([O-])=C1O.[Na+] [Sodium Ascorbate]
True

Reported TEER after 24 hours Mean [%] at or above 50%? NC[C@H]1O[C@H](O[C@H]2[C@H](O)[C@@H](O[C@H]3O[C@H](CO)[C@@H](O)[C@H](N)[C@H]3O)[C@H](N)C[C@@H]2N)[C@H](N)C[C@@H]1O [Tobramycin (T100), Tobramycin, reference compound]
False

Reported TEER after 24 hours Mean [%] at or above 50%? O=C1NS(=O)(=O)c2ccccc21.[Na]
False

Reported TEER after 24 hours Mean [%] at or above 50%? OC[C@H]1O[C@@H]2O[C@H]3[C@H](O)[C@@H](O)[C@@H](O[C@H]4[C@H](O)[C@@H](O)[C@@H](O[C@H]5[C@H](O)[C@@H](O)[C@@H](O[C@H]6[C@H](O)[C@@H](O)[C@@H](O[C@H]7[C@H](O)[C@@H](O)[C@@H](O[C@H]8[C@H](O)[C@@H](O)[C@@H](O[C@H]9[C@H](O)[C@@H](O)[C@@H](O[C@H]1[C@H](O)[C@H]2O)O[C@@H]9CO)O[C@@H]8CO)O[C@@H]7CO)O[C@@H]6CO)O[C@@H]5CO)O[C@@H]4CO)O[C@@H]3CO
False

Reported TEER after 24 hours Mean [%] at or above 50%? C[C@@H]1[C@H](O)[C@@H](C)/C=C/C=C/C=C/C=C/C=C/C=C/C=C/[C@H](O[C@@H]2O[C@H](C)[C@@H](O)[C@H](N)[C@@H]2O)C[C@@H]2O[C@](O)(C[C@@H](O)C[C@@H](O)[C@H](O)CC[C@@H](O)C[C@@H](O)CC(=O)O[C@H]1C)C[C@H](O)[C@H]2C(=O)O [Amphotericin B, reference compound]
True
